Source of measurements: PubChem BioAssay AID1159580

Exercise: for every item that follows, state its recorded normalized growth.
assay: chemical genetic growth profiling, strain panel (AID 1159580);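 note: tested at 20 µM; growth read once vehicle control cultures reached saturation at 30 °C; 1 = growth at the plate median or of vehicle wells; lower values mean less growth of the strain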; settings: S. cerevisiae deletion strains, growth OD, locus YGL240W, strain doc1, hits give low values
Screen size: about 5,500 compounds; about 2,000 (36%) were called active. About 18% were inconclusive and are not listed. The list shows a part of the results.
Answers are plain numbers.

For orientation, consider the following solved cases.
COMPOUND | normalized growth
COc1ccc(OC)c(C(O)CNC(=O)CN)c1 (centres undefined) | 1.02
C=CCc1ccc(O)c(OC)c1 | 0.955
Nc1nc(=S)c2[nH]cnc2[nH]1 | 1.01

We next turn to a different compound, shown below.
Task: Field request: normalized growth | item: COc1ccc(C(=O)O)cc1OC
Result: 0.998

---

assay: chemical genetic growth profiling, strain panel (AID 1159580);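 note: tested at 20 µM; growth read once vehicle control cultures reached saturation at 30 °C; 1 = growth at the plate median or of vehicle wells; lower values mean less growth of the strain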; settings: S. cerevisiae deletion strains, growth OD, locus YKL048C, strain ELM1, hits give low values
The campaign covered roughly 5,500 compounds. About 2,000 (36%) were called active. Another 18% or so got no clear call; they are omitted. This is one part of the list.
Exercise: for every item that follows, state its recorded normalized growth.
Numbers only.

Report normalized growth for every entry below.
1. CCOC(=O)c1ccc2nc(N=CNO)sc2c1
2. Cc1nn(C)c(C(=O)Sc2ccc(OC(F)(F)F)cc2)c1[N+](=O)[O-]
3. N#C/C(=N/Nc1ccccc1)C(=O)c1ccccc1OC(F)(F)F
4. Fc1cc(I)ccc1Nc1ccnc2cc(Cl)ccc12
5. COc1cccc(C2CCN(C(=O)c3cccc4ccccc34)CC2)c1
6. CC(C)c1ccc(COC(=O)Nc2ccc(CSc3ccc(Cl)cc3)o2)cc1

Result:
0.955
0.989
0.883
0.94
0.919
0.953

Report normalized growth for every entry below.
1. O=C(NCc1ccc(Cl)c(Cl)c1)c1cccnc1OCC(F)(F)F
2. CC(=O)/C(C#N)=N\Nc1ccc(F)cc1
3. O=C(ON=C1CCCCC1)c1ccc([N+](=O)[O-])cc1
4. CC(C)(C)c1ccc(C(=N)SC(C(=O)C(F)(F)F)c2ccccc2)cc1 (stereo unspecified)
5. O=C(c1csc(-c2ccc(Cl)cc2)c1)N1CCCCC1
6. Cc1cc(C)cc(Sc2ccc3nnc(-c4ccccc4)n3n2)c1
7. Cc1c(C(=O)Sc2ccc(F)cc2F)sc2nc(C(F)(F)F)nn12

Result:
1: 0.951; 2: 0.14; 3: 0.974; 4: 0.96; 5: 0.904; 6: 0.979; 7: 0.131

Report normalized growth for every entry below.
1. CC(C)(C)c1ccc(N/N=C(\C#N)C(N)=O)cc1
2. C/C(Cc1nnn(-c2cc(C)on2)n1)=N/OC(=O)Nc1ccc(Cl)cc1
3. N/C(Cn1ccc(C(F)(F)F)n1)=N/OS(=O)(=O)c1cccc(Cl)c1Cl
4. Cc1cccc(NC(=S)N/N=C\c2ccc(F)cc2)c1
5. COc1ccc(C(CC(=O)c2ccccc2)Sc2ccccc2N)cc1OC (stereo unspecified)
6. Cc1cc(C(=O)NNS(=O)(=O)c2ccc(F)c(Cl)c2)nn1-c1c(Cl)cc(Cl)cc1Cl

Result:
[0.134, 0.994, 0.984, 0.919, 0.977, 1.01]

Report normalized growth for every entry below.
1. CCOC(=O)C1C(c2c(F)cccc2Cl)C(C(=O)OCC)C(O)(C(F)(F)F)NC1(O)C(F)(F)F (stereo unspecified)
2. Oc1c(Cl)cc(Cl)cc1C=Nc1nc(-c2ccc3ccccc3c2)cs1

Result:
1: 0.988; 2: 0.871
